# TARGET: P2X7 (UniProt Q99572)
# Sequence (Q99572 1-595): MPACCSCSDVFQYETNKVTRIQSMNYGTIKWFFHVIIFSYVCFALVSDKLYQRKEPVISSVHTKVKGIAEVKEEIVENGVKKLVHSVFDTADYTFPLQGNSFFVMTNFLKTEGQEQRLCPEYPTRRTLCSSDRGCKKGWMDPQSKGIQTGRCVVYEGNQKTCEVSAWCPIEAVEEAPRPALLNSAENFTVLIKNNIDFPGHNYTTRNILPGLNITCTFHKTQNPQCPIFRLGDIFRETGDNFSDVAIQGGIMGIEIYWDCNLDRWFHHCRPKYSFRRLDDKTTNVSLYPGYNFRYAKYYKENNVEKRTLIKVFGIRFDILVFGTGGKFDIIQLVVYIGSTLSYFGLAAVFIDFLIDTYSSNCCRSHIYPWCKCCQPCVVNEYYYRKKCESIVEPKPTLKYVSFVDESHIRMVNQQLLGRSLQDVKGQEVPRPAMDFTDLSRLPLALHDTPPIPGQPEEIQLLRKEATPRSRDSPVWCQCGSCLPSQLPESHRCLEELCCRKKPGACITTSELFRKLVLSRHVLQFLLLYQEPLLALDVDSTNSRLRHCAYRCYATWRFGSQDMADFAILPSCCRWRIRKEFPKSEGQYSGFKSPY
# METHOD_NOTES: P2X7 activity of Table 1
# Type: cell-based
# TEST_CONDITIONS: pIC50 values for P2X7
REPORTED_ENDPOINT: pIC50

COMPOUND: Cc1ccc(-c2c(Cl)cn[nH]c2=O)cc1NC(=O)C1=CNC(=O)C[C@H]1c1ccc(F)cc1
REPORTED_ENDPOINT: pIC50
QUANTITATIVE_READOUT: 7.54

COMPOUND: Cc1ccc(=O)n(-c2ccc(C)c(NC(=O)C3=CNC(=O)C[C@H]3c3ccc(F)cc3)c2)c1
REPORTED_ENDPOINT: pIC50
QUANTITATIVE_READOUT: 8.26

COMPOUND: COC[C@H](O)Cn1nc(-c2ccc(C)c(NC(=O)C3=CN(C)C(=O)C[C@H]3c3ccc(F)cc3)c2)cc1C
REPORTED_ENDPOINT: pIC50
QUANTITATIVE_READOUT: 7.45

COMPOUND: Cc1cc(-c2ccc(C)c(NC(=O)C3=CNC(=O)C[C@H]3c3ccc(F)cc3)c2)n(CCO)n1
REPORTED_ENDPOINT: pIC50
QUANTITATIVE_READOUT: 6.913

COMPOUND: Cc1ccc(-c2ccn(CCO)n2)cc1NC(=O)C1=CNC(=O)C[C@H]1c1cccc(Cl)c1 (stereo in doubt)
REPORTED_ENDPOINT: pIC50
QUANTITATIVE_READOUT: 7.56

COMPOUND: Cc1ccc(-c2cc(C(F)(F)F)[nH]n2)cc1NC(=O)C1=CNC(=O)C[C@H]1c1ccc(F)cc1
REPORTED_ENDPOINT: pIC50
QUANTITATIVE_READOUT: 5.77

COMPOUND: Cc1cc(Cl)c(-c2ccnn(C)c2=O)cc1NC(=O)C1=CNC(=O)C[C@H]1c1ccc(F)cc1
REPORTED_ENDPOINT: pIC50
QUANTITATIVE_READOUT: 7.843

COMPOUND: Cc1cc(-c2ccc(Cl)c(NC(=O)C3=CNC(=O)C[C@H]3c3ccc(F)cc3)c2)n[nH]1
REPORTED_ENDPOINT: pIC50
QUANTITATIVE_READOUT: 7.4067

COMPOUND: Cc1ccc(-n2ncc(=O)n(C)c2=O)cc1NC(=O)C1=CN(C)C(=O)C[C@H]1c1ccc(F)cc1
REPORTED_ENDPOINT: pIC50
QUANTITATIVE_READOUT: 7.01

COMPOUND: Cc1cn(-c2ccc(C)c(NC(=O)C3=CNC(=O)C[C@H]3c3ccc(F)cc3)c2)cn1
REPORTED_ENDPOINT: pIC50
QUANTITATIVE_READOUT: 6.855

COMPOUND: Cc1ccc(-c2ccc(C)c(NC(=O)C3=CNC(=O)C[C@H]3c3ccc(F)cc3)c2)nc1
REPORTED_ENDPOINT: pIC50
QUANTITATIVE_READOUT: 7.07

COMPOUND: Cc1ccc(-c2cc[nH]n2)cc1NC(=O)C1=CNC(=O)C[C@H]1c1ccc(F)cc1
REPORTED_ENDPOINT: pIC50
QUANTITATIVE_READOUT: 7.745

COMPOUND: Cc1cc(-c2cc(NC(=O)C3=CNC(=O)C[C@H]3c3ccc(F)cc3)ccc2Cl)n[nH]1
REPORTED_ENDPOINT: pIC50
QUANTITATIVE_READOUT: 5.92

COMPOUND: Cc1ccc(-n2ncc(=O)[nH]c2=O)cc1NC(=O)C1=CN(C)C(=O)C[C@H]1c1cccc(F)c1
REPORTED_ENDPOINT: pIC50
QUANTITATIVE_READOUT: 7.145

COMPOUND: Cc1ccc(-c2cc(C)n(C[C@@H](O)CO)n2)cc1NC(=O)C1=CNC(=O)C[C@H]1c1ccc(F)cc1
REPORTED_ENDPOINT: pIC50
QUANTITATIVE_READOUT: 7.423

* * *

# TARGET: P2X7 (UniProt Q99572)
# Sequence (Q99572 1-595): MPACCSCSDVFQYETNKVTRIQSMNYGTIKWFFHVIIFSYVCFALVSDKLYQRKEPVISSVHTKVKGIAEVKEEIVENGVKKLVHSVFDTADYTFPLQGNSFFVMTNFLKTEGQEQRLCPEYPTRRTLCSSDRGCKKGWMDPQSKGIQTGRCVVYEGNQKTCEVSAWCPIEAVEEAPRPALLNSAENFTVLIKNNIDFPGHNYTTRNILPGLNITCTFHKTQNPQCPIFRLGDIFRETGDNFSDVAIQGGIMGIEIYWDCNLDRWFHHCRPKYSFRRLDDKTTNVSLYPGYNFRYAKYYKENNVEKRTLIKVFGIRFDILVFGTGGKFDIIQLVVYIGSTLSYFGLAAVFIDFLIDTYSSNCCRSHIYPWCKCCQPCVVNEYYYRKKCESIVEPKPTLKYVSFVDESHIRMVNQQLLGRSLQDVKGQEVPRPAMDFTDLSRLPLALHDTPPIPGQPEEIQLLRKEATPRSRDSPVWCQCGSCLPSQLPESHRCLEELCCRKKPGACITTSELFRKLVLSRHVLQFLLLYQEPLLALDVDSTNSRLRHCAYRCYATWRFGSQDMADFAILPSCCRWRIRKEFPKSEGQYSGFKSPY
# METHOD_NOTES: P2X7 activity of Table 1
# Assay type: cell-based
# TEST_CONDITIONS: pIC50 values for P2X7
REPORTED_ENDPOINT: pIC50

COMPOUND: Cc1ccc(-c2cc(C)n(CC(=O)O)n2)cc1NC(=O)C1=CNC(=O)C[C@H]1c1ccc(F)cc1 [Compound 83]
pIC50: 6.335
--
COMPOUND: COCCn1c(C)nnc1-c1ccc(C)c(NC(=O)C2=CNC(=O)C[C@H]2c2ccc(F)cc2)c1 [Compound 48]
pIC50: 5.86
--
COMPOUND: CCc1cc(-c2ccc(C)c(NC(=O)C3=CNC(=O)C[C@H]3c3ccc(F)cc3)c2)[nH]n1 [Compound 14]
pIC50: 6.913
--
COMPOUND: Cc1ccc(-c2[nH]nc(C)c2C)cc1NC(=O)C1=CNC(=O)C[C@H]1c1ccc(F)cc1 [Compound 15]
pIC50: 7.79
--
COMPOUND: Cc1ccc(-c2ccc(C)c(NC(=O)C3=CNC(=O)C[C@H]3c3cccc(F)c3)c2)nn1 [Compound 96]
pIC50: 7.48
--
COMPOUND: Cc1cc(F)c(-c2cc(C)n(CCO)n2)cc1NC(=O)C1=CN(C)C(=O)C[C@H]1c1ccc(F)cc1 [Compound 148]
pIC50: 7.41
--
COMPOUND: Cc1ccc(-c2cnccn2)cc1NC(=O)C1=CNC(=O)C[C@H]1c1ccc(F)cc1 [Compound 43]
pIC50: 7.54

* * *

# TARGET: P2X7 (UniProt Q99572)
# Sequence (Q99572 1-595): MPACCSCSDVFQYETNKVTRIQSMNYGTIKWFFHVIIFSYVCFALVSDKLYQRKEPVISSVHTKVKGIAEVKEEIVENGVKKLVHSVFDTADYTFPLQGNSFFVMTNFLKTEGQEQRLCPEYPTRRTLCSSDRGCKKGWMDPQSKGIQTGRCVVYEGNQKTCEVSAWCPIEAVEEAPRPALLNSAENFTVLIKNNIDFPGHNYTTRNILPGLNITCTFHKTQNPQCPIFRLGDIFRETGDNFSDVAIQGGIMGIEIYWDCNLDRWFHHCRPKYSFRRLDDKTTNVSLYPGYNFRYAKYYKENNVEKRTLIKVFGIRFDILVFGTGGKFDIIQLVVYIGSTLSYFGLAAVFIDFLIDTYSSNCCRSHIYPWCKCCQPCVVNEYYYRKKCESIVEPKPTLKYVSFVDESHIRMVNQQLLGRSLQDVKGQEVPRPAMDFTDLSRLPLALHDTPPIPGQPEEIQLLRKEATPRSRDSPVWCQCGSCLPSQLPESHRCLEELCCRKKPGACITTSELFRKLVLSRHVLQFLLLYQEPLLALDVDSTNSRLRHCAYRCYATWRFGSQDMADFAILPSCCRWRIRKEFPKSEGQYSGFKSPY
# METHOD_NOTES: P2X7 activity of Table 1
# Type: cell-based
# TEST_CONDITIONS: pIC50 values for P2X7
REPORTED_ENDPOINT: pIC50

Sample answers from the record:
MOLECULE: Cc1ccnc(-c2ccc(C)c(NC(=O)C3=CNC(=O)C[C@H]3c3ccc(F)cc3)c2)n1 [Compound 80]
QUANTITATIVE_READOUT: 7.315
--
MOLECULE: Cc1ccc(-c2cc(C)n(C[C@@H](C)O)n2)cc1NC(=O)C1=CN(C)C(=O)C[C@H]1c1ccc(F)cc1 [Compound 73]
QUANTITATIVE_READOUT: 7.255

P: Cc1ccc(-c2ccn[nH]c2=O)cc1NC(=O)C1=CN(C)C(=O)C[C@H]1c1ccc(F)cc1 [Compound 72]
Q: Cc1cc(-c2cccc(NC(=O)C3=CNC(=O)C[C@H]3c3ccc(F)cc3)c2)n(C)n1 [Compound 20]
input: From the recorded data, which exceeds the other in pIC50: P or Q ? Which one? Tell me its label.
output: P
(P: 7.8367, Q: 5.31)
